Biological target: JNK1 (Homo sapiens (Human))
Sequence (P45983 whole entry): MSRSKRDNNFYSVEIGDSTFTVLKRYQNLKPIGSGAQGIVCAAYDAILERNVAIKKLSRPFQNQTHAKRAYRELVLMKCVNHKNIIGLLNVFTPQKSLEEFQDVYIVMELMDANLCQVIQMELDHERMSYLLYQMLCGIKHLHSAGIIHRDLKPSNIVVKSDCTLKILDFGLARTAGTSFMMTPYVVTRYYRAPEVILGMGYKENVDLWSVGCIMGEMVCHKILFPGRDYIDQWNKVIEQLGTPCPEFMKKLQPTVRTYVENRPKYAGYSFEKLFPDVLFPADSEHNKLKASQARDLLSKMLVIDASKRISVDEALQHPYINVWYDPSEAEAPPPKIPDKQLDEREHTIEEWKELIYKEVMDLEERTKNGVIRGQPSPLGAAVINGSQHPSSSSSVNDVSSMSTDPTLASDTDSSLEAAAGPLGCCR
Assay: In Vitro JNK1 Assay (TR-FRET, phosphorylation of GST-c-Jun)
Type: biochemical
Settings: 0.2 nM active JNK1 kinase, 26.7 nM GST-c-Jun, 2 μM ATP, 30 min at room temperature
Method: Phosphorylation of GST-c-Jun protein (amino acid residues 1-79) was measured as JNK1 activity. […] The reaction buffer contained 50 mM HEPES, pH […], 1 mM DTT, 0.1 mM Na3VO4 and 0.2 mg/mL BSA. […] Time-resolved Fluorescence Resonance Energy Transfer (TR-FRET) signals were measured 1 hr. later on the EnVision reader (Perkin Elmer). Compound potency was assessed at 10 serially diluted concentrations. […]
Decision: IC50 beneath 50 nM gives condition met; IC50 meeting or exceeding 50 nM gives condition not met.

Past entries and their recorded results:
[[record]]
smiles_notation = "COc1ccccc1Cn1ccc(C(=O)NCc2cn(-c3ccccc3)c3cc(Cl)ccc3c2=O)cc1=O"
system_name = "JNK1 (Homo sapiens (Human))"
classification = "condition not met"

[[record]]
smiles_notation = "COC(=O)c1c(CNC(=O)c2ccc(Cl)nc2)c(=O)c2ccc(F)cc2n1-c1ccccc1"
system_name = "JNK1 (Homo sapiens (Human))"
classification = "condition met"

[[record]]
smiles_notation = "COC(=O)c1c(CNC(=O)C2CCN(C(C)=O)CC2)c(=O)c2ccc(Cl)cc2n1-c1ccccc1"
system_name = "JNK1 (Homo sapiens (Human))"
classification = "condition not met"

[[record]]
smiles_notation = "COC(=O)c1c(CN(C)C(=O)c2ccc(S(C)(=O)=O)cc2)c(=O)c2ccc(Cl)cc2n1-c1ccccc1"
system_name = "JNK1 (Homo sapiens (Human))"
classification = "condition not met"

[[record]]
smiles_notation = "O=C(NCc1cn(-c2ccccc2)c2cc(Cl)ccc2c1=O)c1ccn(Cc2ccccc2Cl)c(=O)c1"
system_name = "JNK1 (Homo sapiens (Human))"
classification = "condition not met"


hey, is IC50 for COC(=O)c1c(CNC(=O)c2cccc(F)c2)c(=O)c2ccc(Cl)cc2n1-c1ccccc1 lower than 50 nM or not? condition met
